This section presents compounds with their documented Ki values.
- experimental-system: Substance-K receptor (Homo sapiens)
- Sequence (P21452 whole entry): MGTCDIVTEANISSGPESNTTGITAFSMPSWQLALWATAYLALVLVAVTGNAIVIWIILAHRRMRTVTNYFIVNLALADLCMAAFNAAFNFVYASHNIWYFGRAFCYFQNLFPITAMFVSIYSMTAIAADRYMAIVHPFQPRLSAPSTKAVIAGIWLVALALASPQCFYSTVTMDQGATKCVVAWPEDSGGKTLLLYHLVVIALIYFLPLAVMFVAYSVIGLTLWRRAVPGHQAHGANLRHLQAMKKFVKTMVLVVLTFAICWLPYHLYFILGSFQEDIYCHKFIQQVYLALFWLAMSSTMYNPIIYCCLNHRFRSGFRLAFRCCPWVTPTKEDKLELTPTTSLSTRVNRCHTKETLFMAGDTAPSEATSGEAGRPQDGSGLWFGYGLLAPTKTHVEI
- experiment-notes: Binding affinity test against Neurokinin 2 (NK2) receptor
# number only, unit nM dropped from output

compound	experimental-system	meas-value
CO/N=C(\COCc1ccccc1)C(CCN1CCC(O)(c2ccccc2)CC1)c1ccc(Cl)c(Cl)c1 (centres undefined)	Substance-K receptor (Homo sapiens)	40
CO/N=C(\CNC(=O)c1ccccc1OC)C(CCN1CCC(O)(c2ccccc2)CC1)c1ccc(Cl)c(Cl)c1 (centres undefined)	Substance-K receptor (Homo sapiens)	54
CO/N=C(\CN(C)C(=O)Oc1cc(C(F)(F)F)cc(C(F)(F)F)c1)C(CCN1CCC(O)(c2ccccc2)CC1)c1ccc(Cl)c(Cl)c1 (centres undefined)	Substance-K receptor (Homo sapiens)	11

Next compound, Ki to be filled in.
[in] Ki for CO/N=C(\COCC12CC3CC(CC(C3)C1)C2)C(CCN1CCC(O)(c2ccccc2)CC1)c1ccc(Cl)c(Cl)c1 (centres undefined) ?
[out] 7
